Target: FGFR2 (h) (Homo sapiens)
Sequence (P21802 22-821): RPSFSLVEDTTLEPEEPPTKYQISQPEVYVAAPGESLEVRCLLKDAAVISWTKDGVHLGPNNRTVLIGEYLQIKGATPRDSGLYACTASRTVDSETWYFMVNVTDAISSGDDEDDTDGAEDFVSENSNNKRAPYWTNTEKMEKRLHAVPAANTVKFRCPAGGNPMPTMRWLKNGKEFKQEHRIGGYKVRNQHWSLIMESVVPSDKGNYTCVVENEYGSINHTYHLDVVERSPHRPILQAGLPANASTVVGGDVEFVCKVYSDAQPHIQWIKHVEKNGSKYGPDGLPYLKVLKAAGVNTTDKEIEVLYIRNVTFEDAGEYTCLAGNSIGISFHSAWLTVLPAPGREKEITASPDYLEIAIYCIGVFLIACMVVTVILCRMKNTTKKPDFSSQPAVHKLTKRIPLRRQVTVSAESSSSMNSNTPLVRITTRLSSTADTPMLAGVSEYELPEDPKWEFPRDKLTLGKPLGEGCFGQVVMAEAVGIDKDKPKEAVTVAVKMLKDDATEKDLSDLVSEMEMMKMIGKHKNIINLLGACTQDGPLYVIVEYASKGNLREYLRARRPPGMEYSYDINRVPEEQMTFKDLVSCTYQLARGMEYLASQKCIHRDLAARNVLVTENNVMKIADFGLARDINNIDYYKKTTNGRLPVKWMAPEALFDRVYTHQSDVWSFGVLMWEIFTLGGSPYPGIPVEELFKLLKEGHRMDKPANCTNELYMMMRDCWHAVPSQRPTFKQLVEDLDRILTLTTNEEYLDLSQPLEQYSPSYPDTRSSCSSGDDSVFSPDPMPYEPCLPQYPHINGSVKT
Assay: FGFR2 (enzymatic assay), TR-FRET
Assay type: biochemical
Conditions: read-out: FGFR 2 pIC50 (converted)
Metric Name: IC50 (nM)

COc1cc(OC)cc(N(CC2CC2)c2ccc3ncc(-n4cnc(CO)c4)nc3c2)c1 [Compound 105]
40.7
COc1cc(OC)cc(N(CCNC(C)C)c2ccc3ncc(-c4ccc(N5CCOCC5)nc4)nc3c2)c1 [Compound 168]
3.72
COc1cc(OC)cc(N(CCCO)c2ccc3ncc(-c4ccc(F)nc4)nc3c2)c1 [Compound 117]
22.4
COc1cc(OC)cc(N(CCO)c2ccc3ncc(-c4ccccc4)nc3c2)c1 [Compound 120]
15.1
COc1cc(OC)cc(N(CCCO)c2ccc3ncc(-c4ccnc(Cl)c4)nc3c2)c1 [Compound 136]
25.7
COc1cc(OC)cc(N(CC2CC2)c2ccc3ncc(-c4cnnn4C)nc3c2)c1 [Compound 72]
479
COc1cc(OC)cc(N(CCNC(C)C)c2ccc3ncc(-n4cnc(CO)c4)nc3c2)c1 [Compound 77]
9.12
COc1cc(OC)cc(N(CC2CC2)c2ccc3ncc(-c4ccnc(N5CCOCC5)c4)nc3c2)c1 [Compound 90]
676
COc1cc(OC)cc(N(CCO)c2ccc3ncc(-c4ccnc(C(=O)NCCCN)c4)nc3c2)c1 [Compound 123]
25.7
COc1cc(OC)cc(N(CC2CC2)c2ccc3ncc(-c4ccc5[nH]ccc5c4)nc3c2)c1 [Compound 86]
1820

1. COc1cc(OC)cc(N(CCCO)c2ccc3ncc(-c4ccnc(C(=O)N5CCOCC5)c4)nc3c2)c1 [Compound 43]
2. COCC(CN(c1cc(OC)cc(OC)c1)c1ccc2ncc(-c3cccnc3)nc2c1)OC(C)=O (single isomer, unassigned) [Compound 76]
3. COc1cc(OC)cc(N(CCN2CCNCC2)c2ccc3ncc(-c4ccc(N)nc4)nc3c2)c1 [Compound 59]
Enquiry: Rank the 3 compounds: largest IC50 first, smallest last. List the labels, following the order given in the request.
Return: 2, 1, 3
(2: 20 nM, 1: 13.2 nM, 3: 4.07 nM)

I. COc1cc(OC)cc(N(CCNC(C)C)c2ccc3ncc(C(=O)NCCN4CCOCC4)nc3c2)c1 [Compound 160]
II. COc1cc(OC)cc(N(CCN)c2ccc3ncc(-c4ccn(C)c4)nc3c2)c1 [Compound 79]
Enquiry: Of the two listed items, I and II , which carries the larger IC50 figure? Kindly give the label for the entry you pick.
Return: I
(I: 57.5 nM, II: 2.63 nM)

P. COc1cc(OC)cc(N(CCCO)c2ccc3ncc(-c4cccnc4)nc3c2)c1 [Compound 112]
Q. COc1cc(OC)cc(N(CC2CC2)c2ccc3ncc(-c4nnc(C)o4)nc3c2)c1 [Compound 85]
R. COc1cc(OC)cc(N(CCNC(C)C)c2ccc3ncc(-c4ccn[nH]4)nc3c2)c1 [Compound 189]
S. COc1cc(OC)cc(N(CCCNCC(F)(F)F)c2ccc3ncc(-c4ccnc(Cl)c4)nc3c2)c1 [Compound 145]
T. COc1cc(OC)cc(N(CCCO)c2ccc3ncc(-c4ccnc(C(=O)NCCCCN)c4)nc3c2)c1 [Compound 126]
Enquiry: Rank the 5 compounds: largest IC50 first, smallest last. List the labels, following the order given in the request.
Return: Q, S, T, P, R
(Q: 380 nM, S: 166 nM, T: 33.1 nM, P: 20.9 nM, R: 2.29 nM)
